Tested on: HCT 116 (colon)
measurement_notes: Cytotoxicity on human cells, automated nuclei counting: HCT 116
Type: cell-based
measurement_parameters: HCT 116 cells, exposed 24 h to 48 h, 0.1 to 25 μM
Please provide measured IC50 for the entries that follow.

Query string: Requested field: IC50. Item: O=C(Nc1cnccn1)Nc1cccc2c1C1CCCCN1C2=O (centres unmarked)
Result string: 0.1 µM

Query string: Requested field: IC50. Item: O=C(Nc1cnccn1)Nc1cccc2c1C1CC3(CCN1C2=O)OCCO3 (centres unmarked)
Result string: 1.5 µM

Query string: Requested field: IC50. Item: O=C1c2cccc(NC(=S)Nc3cnccn3)c2C2CCCCN12 (centres unmarked)
Result string: > 25 µM

Query string: Requested field: IC50. Item: O=C1c2cccc(NC(=S)Nc3ccc(Br)cn3)c2C2CCCCN12 (centres unmarked)
Result string: 3 µM

Query string: Requested field: IC50. Item: O=C1c2cccc(NC(=S)Nc3cccc(Br)n3)c2C2CCCCN12 (centres unmarked)
Result string: 2 µM

----------
Please provide measured IC50 for the entries that follow.
System: Caco (colon)
measurement_notes: Cytotoxicity on human cells, automated nuclei counting: Caco
Assay type: cell-based
measurement_parameters: exposed 24 h to 48 h, 0.1 to 25 μM
Numbers only here, please. The scale is µM.

Query string: Requested field: IC50. Item: COc1cc(NC(=O)Nc2cccc3c2C2CC(O)CCN2C3=O)nc2ccccc12 (stereo not drawn)
Result string: 15

Query string: Requested field: IC50. Item: O=C(Nc1cnccn1)Nc1cccc2c1C1CC3(CCN1C2=O)SCCS3 (stereo not drawn)
Result string: 0.5

Query string: Requested field: IC50. Item: O=C1CCN2C(=O)c3cccc(NC(=O)Nc4cnccn4)c3C2C1 (stereo not drawn)
Result string: 25

Query string: Requested field: IC50. Item: O=C1c2cccc(NC(=S)Nc3cc[nH]n3)c2C2CCCCN12 (stereo not drawn)
Result string: 20

Query string: Requested field: IC50. Item: O=C1c2cccc(NC(=S)Nc3cnccn3)c2C2CC3(CCN12)SCCS3 (stereo not drawn)
Result string: 4

Query string: Requested field: IC50. Item: O=C(Nc1cccc(Br)n1)Nc1cccc2c1C1CC3(CCN1C2=O)SCCS3 (stereo not drawn)
Result string: 3

Query string: Requested field: IC50. Item: COc1ccc(NC(=O)Nc2cccc3c2C2CCCCN2C3=O)cn1 (stereo not drawn)
Result string: 0.8

Query string: Requested field: IC50. Item: Cc1nc(NC(=O)Nc2cccc3c2C2CCCCN2C3=O)cs1 (stereo not drawn)
Result string: 0.7

Query string: Requested field: IC50. Item: O=C(Nc1ccccn1)Nc1cccc2c1C1CC3(CCN1C2=O)SCCS3 (stereo not drawn)
Result string: 15

Query string: Requested field: IC50. Item: O=C(Nc1cscn1)Nc1cccc2c1C1CCCCN1C2=O (stereo not drawn)
Result string: 0.8

Query string: Requested field: IC50. Item: O=C(Nc1cccc2c1C1CCCCN1C2=O)Nc1nc(Cl)c(Cl)c(Cl)c1Cl (stereo not drawn)
Result string: 1.5

Query string: Requested field: IC50. Item: O=C(Nc1cccc(F)n1)Nc1cccc2c1C1CCCCN1C2=O (stereo not drawn)
Result string: 0.03

Query string: Requested field: IC50. Item: O=C(Nc1ccccn1)Nc1cccc2c1C1CC3(CCN1C2=O)OCCO3 (stereo not drawn)
Result string: 0.6
